Test system: MKL-2
procedure.summary: qHTS assay to identify novel small-molecules to repurpose for Merkel cell carcinoma treatment (AID 1296009); further: nearly all actives have a fitted effect of over 60% in size
applied.conditions: MCC and control cell lines, CellTiter-Glo viability, 72 h; series mostly up to 46 µM
Records with an inconclusive call do not appear. Calls of active or inactive are those of the source. The call rests on the fitted dose curve; in most records, active means well fitted inhibition curve with a large enough effect; inconclusive means small, poorly fitted or top-dose-only effect; inactive means flat fitted curve, though single readings scatter.
Classes used: yes = active, no = inactive

structure.smiles | target.or.system | answer.label
CC[C@H]1OC(=O)[C@H](C)[C@@H](O[C@H]2C[C@@](C)(OC)[C@@H](O)[C@H](C)O2)[C@H](C)[C@@H](O[C@@H]2O[C@H](C)C[C@H](N(C)C)[C@@H]2O)[C@](C)(OC)C[C@@H](C)C(=O)[C@H](C)[C@@H](O)[C@]1(C)O | MKL-2 | no
CC1(C)O[C@@H]2C[C@H]3[C@@H]4CCC5=CC(=O)C=C[C@]5(C)[C@@H]4[C@@H](O)C[C@]3(C)[C@]2(C(=O)CO)O1 | MKL-2 | no
CC(C)(O)Cn1c(NC(=O)c2ccc(-c3cn[nH]c3)s2)nc2cc(CN3CCOCC3)ccc21 | MKL-2 | yes
